Measured Ki (Carbonic anhydrase 3 (Homo sapiens, UniProt P07451))

Cc1ccc(S(=O)(=O)NC(=O)Nc2ccc(S(N)(=O)=O)nc2)cc1 : > 100 µM

Here is another compound to look at.
q: For Carbonic anhydrase 3 (Homo sapiens, UniProt P07451), provide Ki of Nc1ccc(S(N)(=O)=O)cc1 [SULFANILAMIDE] please.
a: > 100 µM

* * *

Experimental target: Carbonic anhydrase 9 (Homo sapiens)
Measured quantity: Ki (nM)
Dear colleague, please return just the value in nM, with no unit written.

q: Bench note: what Ki did `Nc1ccc(S(N)(=O)=O)nc1` show?
a: 279

* * *

Experimental target: Carbonic anhydrase 13 (Homo sapiens, UniProt Q8N1Q1)
Sequence (Q8N1Q1 whole entry): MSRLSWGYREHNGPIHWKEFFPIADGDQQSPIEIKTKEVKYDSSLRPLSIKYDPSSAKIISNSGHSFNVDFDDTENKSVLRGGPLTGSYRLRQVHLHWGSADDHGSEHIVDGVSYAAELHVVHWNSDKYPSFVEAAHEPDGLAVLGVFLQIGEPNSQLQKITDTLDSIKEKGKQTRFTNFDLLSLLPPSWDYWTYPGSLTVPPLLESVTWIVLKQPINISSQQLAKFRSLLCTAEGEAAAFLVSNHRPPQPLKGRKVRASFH
Measured quantity: pKi
Remember the convention: pKi equals -log10 of concentration in molar.

q: Fill in the recorded pKi for this molecule, with Carbonic anhydrase 13 (Homo sapiens, UniProt Q8N1Q1) as test system: Nc1ccc(S(N)(=O)=O)cc1 [SULFANILAMIDE]
a: 7.46

* * *

Notes on pKi obtained with Carbonic anhydrase 7 (Homo sapiens).
Sequence (P43166 whole entry): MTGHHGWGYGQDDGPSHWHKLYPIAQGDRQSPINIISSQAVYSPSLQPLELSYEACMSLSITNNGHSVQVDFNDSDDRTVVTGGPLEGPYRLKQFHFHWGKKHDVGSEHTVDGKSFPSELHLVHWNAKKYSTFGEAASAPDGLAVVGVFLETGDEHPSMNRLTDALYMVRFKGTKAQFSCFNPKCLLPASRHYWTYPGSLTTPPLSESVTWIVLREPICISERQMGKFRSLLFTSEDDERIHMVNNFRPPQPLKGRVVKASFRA
pKi here: minus log base 10 of the concentration, concentration in moles per litre.

Nc1ccc(S(N)(=O)=O)nc1 : 6.87

q: # input molecule: `Cc1ccc(S(=O)(=O)NC(=O)Nc2ccc(S(N)(=O)=O)cc2)cc1` ; wanted: its pKi
a: 8.19
